Target: hERG potassium channel (Homo sapiens, UniProt Q12809)
Construct: expressed in transfected cells
Sequence (Q12809 whole entry): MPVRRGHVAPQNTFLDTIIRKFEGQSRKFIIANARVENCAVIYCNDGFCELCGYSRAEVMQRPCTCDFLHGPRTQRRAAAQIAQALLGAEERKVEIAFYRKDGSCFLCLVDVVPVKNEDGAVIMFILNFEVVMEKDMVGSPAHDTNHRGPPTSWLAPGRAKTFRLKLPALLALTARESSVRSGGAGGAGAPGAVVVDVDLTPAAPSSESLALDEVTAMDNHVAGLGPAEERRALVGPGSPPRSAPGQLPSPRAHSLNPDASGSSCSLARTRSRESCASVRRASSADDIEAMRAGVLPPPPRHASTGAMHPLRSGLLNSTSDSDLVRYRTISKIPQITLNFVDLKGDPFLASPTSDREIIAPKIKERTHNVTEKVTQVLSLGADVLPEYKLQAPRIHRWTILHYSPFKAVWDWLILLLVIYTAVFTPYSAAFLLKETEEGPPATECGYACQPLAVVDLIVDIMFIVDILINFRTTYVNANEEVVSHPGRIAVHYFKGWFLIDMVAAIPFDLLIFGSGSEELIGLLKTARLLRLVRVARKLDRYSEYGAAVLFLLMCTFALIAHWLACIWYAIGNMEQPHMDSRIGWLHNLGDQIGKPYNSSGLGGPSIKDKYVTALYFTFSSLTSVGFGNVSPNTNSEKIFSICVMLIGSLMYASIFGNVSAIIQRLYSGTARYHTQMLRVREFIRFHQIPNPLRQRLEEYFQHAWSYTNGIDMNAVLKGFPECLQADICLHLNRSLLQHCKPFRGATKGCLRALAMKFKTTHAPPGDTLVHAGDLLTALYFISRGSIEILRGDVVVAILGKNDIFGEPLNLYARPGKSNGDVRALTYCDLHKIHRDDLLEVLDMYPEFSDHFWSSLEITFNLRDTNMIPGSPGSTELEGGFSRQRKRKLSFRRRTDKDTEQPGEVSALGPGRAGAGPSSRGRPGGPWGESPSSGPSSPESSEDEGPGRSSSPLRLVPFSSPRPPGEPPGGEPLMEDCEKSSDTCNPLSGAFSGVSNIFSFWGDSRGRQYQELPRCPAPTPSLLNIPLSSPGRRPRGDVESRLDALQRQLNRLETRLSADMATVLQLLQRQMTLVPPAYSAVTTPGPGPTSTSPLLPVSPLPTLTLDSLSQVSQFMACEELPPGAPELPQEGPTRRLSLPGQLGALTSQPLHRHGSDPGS
Assay: hERG screening assay (PatchXpress patch clamp)
Type: cell-based
Conditions: 10 μM test compound; hERG expressed in CHO cells; peak current at -50 mV
Outcome label depends on hERG Patch Clamp hERG % blk 10 μm relative to 40%: at/above gives rule met, below gives rule not met.

[
  {
    "STRUCTURE NOTATION": "O=C1CCc2cc(-c3ccc(F)c(F)c3)ccc2N1CCO",
    "GROUP LABEL": "rule met"
  },
  {
    "STRUCTURE NOTATION": "O=C1CCc2cc(-c3ccc(OC(F)(F)F)cc3)ccc2N1",
    "GROUP LABEL": "rule not met"
  },
  {
    "STRUCTURE NOTATION": "COCCN1C(=O)CCc2cc(-c3ccc(F)cc3F)ccc21",
    "GROUP LABEL": "rule met"
  }
]

Q: Is hERG Patch Clamp hERG % blk 10 μm at least 40%? Consider O=C(O)CN1C(=O)CCc2cc(-c3cccc(C(F)(F)F)c3)ccc21
Ans: rule not met

Q: Is hERG Patch Clamp hERG % blk 10 μm at least 40%? Consider O=C(O)CN1C(=O)CCc2cc(-c3ccc(Cl)c(Cl)c3)ccc21
Ans: rule not met

Q: Is hERG Patch Clamp hERG % blk 10 μm at least 40%? Consider Cc1cc(CN2C(=O)CCc3cc(-c4ccc(OC(F)(F)F)cc4)ccc32)no1
Ans: rule met

Q: Is hERG Patch Clamp hERG % blk 10 μm at least 40%? Consider O=C1CCc2cc(-c3ccc(C(F)(F)F)cc3)ccc2N1CCO
Ans: rule not met

Q: Is hERG Patch Clamp hERG % blk 10 μm at least 40%? Consider COCCN1C(=O)CCc2cc(-c3ccc(C(F)(F)F)cc3)ccc21
Ans: rule met

Value source: patent US8664379B2
